Hello, the source for this data is patent US20240391954A1, in case you need it.

- tested-target: human MC4R receptor (human, UniProt P32245 1-332)
- Sequence (P32245 whole entry): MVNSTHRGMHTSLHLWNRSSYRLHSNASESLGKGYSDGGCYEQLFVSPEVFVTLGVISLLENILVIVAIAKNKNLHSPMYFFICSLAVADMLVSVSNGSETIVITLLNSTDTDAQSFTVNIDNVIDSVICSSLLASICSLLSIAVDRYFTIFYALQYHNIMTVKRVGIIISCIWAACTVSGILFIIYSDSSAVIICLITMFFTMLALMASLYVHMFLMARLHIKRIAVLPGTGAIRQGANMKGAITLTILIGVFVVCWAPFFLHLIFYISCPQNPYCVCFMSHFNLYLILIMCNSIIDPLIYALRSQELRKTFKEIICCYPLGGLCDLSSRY
- assay-notes: cell-based or functional assay
Starred links: 1 amine or outer side, 2 acyl side, 3 side chain; linkers in the order of their positions; H or OH if unused. Positions of bridges follow the written chain, without caps; N, C: chain ends. Non-standard residues stand in square brackets, D forms with d. dTyr(4-OMe) = O-methyl-D-tyrosine (4-OMe), COc1ccc(C[C@@H](N[*:1])C(=O)[*:2])cc1; dPhe(4-Br) = N[C@H](Cc1ccc(Br)cc1)C(=O)O; 3Pal = N[C@@H](Cc1cccnc1)C(=O)O; Cit = NC(=O)NCCC[C@H](N)C(=O)O; Nle = CCCC[C@H](N)C(=O)O; Aib = CC(C)(N)C(=O)O
Assignment: determine reported % max activation for the given binders.
Supply the numeric figure in %, leaving out any unit text.

Name the reported % max activation value associated with the binder Ac-RC[Aib]R[dF][Cit]WC-NH2 (disulfide 2-8) [CTX-1270]
98

Name the reported % max activation value associated with the binder Ac-R[Nle]CR[dTyr(4-OMe)]RFC-NH2 (disulfide 3-8; SMILES CCCC[C@H](NC(=O)[C@H](CCCNC(=N)N)NC(C)=O)C(=O)N[C@H]1CSSC[C@@H](C(N)=O)NC(=O)[C@H](Cc2ccccc2)NC(=O)[C@H](CCCNC(=N)N)NC(=O)[C@@H](Cc2ccc(OC)cc2)NC(=O)[C@H](CCCNC(=N)N)NC1=O) [CTX-1624]
83

Name the reported % max activation value associated with the binder Ac-R[Nle]CR[dPhe(4-Br)]RFC-NH2 (disulfide 3-8; SMILES CCCC[C@H](NC(=O)[C@H](CCCNC(=N)N)NC(C)=O)C(=O)N[C@H]1CSSC[C@@H](C(N)=O)NC(=O)[C@H](Cc2ccccc2)NC(=O)[C@H](CCCNC(=N)N)NC(=O)[C@@H](Cc2ccc(Br)cc2)NC(=O)[C@H](CCCNC(=N)N)NC1=O) [CTX-1623]
73

Name the reported % max activation value associated with the binder Ac-C[dA]R[dF]RWC-NH2 (disulfide 1-7; SMILES CC(=O)N[C@H]1CSSC[C@@H](C(N)=O)NC(=O)[C@H](Cc2c[nH]c3ccccc23)NC(=O)[C@H](CCCNC(=N)N)NC(=O)[C@@H](Cc2ccccc2)NC(=O)[C@H](CCCNC(=N)N)NC(=O)[C@@H](C)NC1=O) [CTX-1627]
104

Name the reported % max activation value associated with the binder Ac-CG[Cit][dF]RFC-NH2 (disulfide 1-7; SMILES CC(=O)N[C@H]1CSSC[C@@H](C(N)=O)NC(=O)[C@H](Cc2ccccc2)NC(=O)[C@H](CCCNC(=N)N)NC(=O)[C@@H](Cc2ccccc2)NC(=O)[C@H](CCCNC(N)=O)NC(=O)CNC1=O) [CTX-1639]
88

Name the reported % max activation value associated with the binder Ac-R[Nle]C[Cit]FRWC-NH2 (disulfide 3-8; SMILES CCCC[C@H](NC(=O)[C@H](CCCNC(=N)N)NC(C)=O)C(=O)N[C@H]1CSSC[C@@H](C(N)=O)NC(=O)[C@H](Cc2c[nH]c3ccccc23)NC(=O)[C@H](CCCNC(=N)N)NC(=O)[C@H](Cc2ccccc2)NC(=O)[C@H](CCCNC(N)=O)NC1=O) [CTX-1609]
96

Name the reported % max activation value associated with the binder {CH2CO}-[Aib][Cit][dF]RWC-NH2 (thioether N-6; SMILES CC1(C)NC(=O)CSC[C@@H](C(N)=O)NC(=O)[C@H](Cc2c[nH]c3ccccc23)NC(=O)[C@H](CCCNC(=N)N)NC(=O)[C@@H](Cc2ccccc2)NC(=O)[C@H](CCCNC(N)=O)NC1=O) [CTX-1649]
97

Name the reported % max activation value associated with the binder {CH2CO}-[Aib]R[dF]RWC-NH2 (thioether N-6; SMILES CC1(C)NC(=O)CSC[C@@H](C(N)=O)NC(=O)[C@H](Cc2c[nH]c3ccccc23)NC(=O)[C@H](CCCNC(=N)N)NC(=O)[C@@H](Cc2ccccc2)NC(=O)[C@H](CCCNC(=N)N)NC1=O) [CTX-1648]
101

Name the reported % max activation value associated with the binder Ac-RC[Aib][3Pal][dF]RFC-NH2 (disulfide 2-8; SMILES CC(=O)N[C@@H](CCCNC(=N)N)C(=O)N[C@H]1CSSC[C@@H](C(N)=O)NC(=O)[C@H](Cc2ccccc2)NC(=O)[C@H](CCCNC(=N)N)NC(=O)[C@@H](Cc2ccccc2)NC(=O)[C@H](Cc2cccnc2)NC(=O)C(C)(C)NC1=O) [CTX-1605]
85

Name the reported % max activation value associated with the binder Ac-R[Nle]CR[dF]RWC-NH2 (disulfide 3-8; SMILES CCCC[C@H](NC(=O)[C@H](CCCNC(=N)N)NC(C)=O)C(=O)N[C@H]1CSSC[C@@H](C(N)=O)NC(=O)[C@H](Cc2c[nH]c3ccccc23)NC(=O)[C@H](CCCNC(=N)N)NC(=O)[C@@H](Cc2ccccc2)NC(=O)[C@H](CCCNC(=N)N)NC1=O) [CTX-1228]
102

Name the reported % max activation value associated with the binder Ac-R[Nle]C[3Pal][dF]RWC-NH2 (disulfide 3-8; SMILES CCCC[C@H](NC(=O)[C@H](CCCNC(=N)N)NC(C)=O)C(=O)N[C@H]1CSSC[C@@H](C(N)=O)NC(=O)[C@H](Cc2c[nH]c3ccccc23)NC(=O)[C@H](CCCNC(=N)N)NC(=O)[C@@H](Cc2ccccc2)NC(=O)[C@H](Cc2cccnc2)NC1=O) [CTX-1620]
91
